systemTested: Dual specificity mitogen-activated protein kinase kinase 1 (Homo sapiens)
Sequence (Q02750 whole entry): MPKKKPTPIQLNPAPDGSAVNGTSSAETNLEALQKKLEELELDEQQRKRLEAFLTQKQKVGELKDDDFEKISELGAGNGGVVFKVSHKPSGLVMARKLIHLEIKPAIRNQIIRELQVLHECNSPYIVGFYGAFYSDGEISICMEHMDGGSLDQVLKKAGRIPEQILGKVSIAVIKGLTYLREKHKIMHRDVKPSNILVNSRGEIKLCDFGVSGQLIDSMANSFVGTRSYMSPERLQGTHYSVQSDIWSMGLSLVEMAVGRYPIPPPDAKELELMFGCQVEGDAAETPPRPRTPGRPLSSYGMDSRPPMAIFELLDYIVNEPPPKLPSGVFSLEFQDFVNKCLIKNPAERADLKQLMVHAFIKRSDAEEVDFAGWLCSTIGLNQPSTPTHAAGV
experimentalProtocol: Inhibition of MEK-1 activity
quantityName: IC50 (nM)
Only the number, expressed in nM, is required.

>>> df
                                   molecule  quantityname  observedmeasurement
0  CC(CO)/N=C(\N)c1c(O)nsc1Nc1ccc(Oc2ccccc2)cc1 (configuration not stated)          IC50                   33

Continue with the next molecule.
Exam item: IC50 of CC(CO)NC(=N)c1c(O)nsc1Nc1ccc(Nc2ccccc2)cc1 (configuration not stated) on Dual specificity mitogen-activated protein kinase kinase 1 (Homo sapiens)?
Marked response: 240

Values compiled from ChEMBL document CHEMBL1137237.
